- TARGET_ENTITY: Transient receptor potential cation channel subfamily V member 1 (Homo sapiens, UniProt Q8NER1)
- Sequence (Q8NER1 whole entry): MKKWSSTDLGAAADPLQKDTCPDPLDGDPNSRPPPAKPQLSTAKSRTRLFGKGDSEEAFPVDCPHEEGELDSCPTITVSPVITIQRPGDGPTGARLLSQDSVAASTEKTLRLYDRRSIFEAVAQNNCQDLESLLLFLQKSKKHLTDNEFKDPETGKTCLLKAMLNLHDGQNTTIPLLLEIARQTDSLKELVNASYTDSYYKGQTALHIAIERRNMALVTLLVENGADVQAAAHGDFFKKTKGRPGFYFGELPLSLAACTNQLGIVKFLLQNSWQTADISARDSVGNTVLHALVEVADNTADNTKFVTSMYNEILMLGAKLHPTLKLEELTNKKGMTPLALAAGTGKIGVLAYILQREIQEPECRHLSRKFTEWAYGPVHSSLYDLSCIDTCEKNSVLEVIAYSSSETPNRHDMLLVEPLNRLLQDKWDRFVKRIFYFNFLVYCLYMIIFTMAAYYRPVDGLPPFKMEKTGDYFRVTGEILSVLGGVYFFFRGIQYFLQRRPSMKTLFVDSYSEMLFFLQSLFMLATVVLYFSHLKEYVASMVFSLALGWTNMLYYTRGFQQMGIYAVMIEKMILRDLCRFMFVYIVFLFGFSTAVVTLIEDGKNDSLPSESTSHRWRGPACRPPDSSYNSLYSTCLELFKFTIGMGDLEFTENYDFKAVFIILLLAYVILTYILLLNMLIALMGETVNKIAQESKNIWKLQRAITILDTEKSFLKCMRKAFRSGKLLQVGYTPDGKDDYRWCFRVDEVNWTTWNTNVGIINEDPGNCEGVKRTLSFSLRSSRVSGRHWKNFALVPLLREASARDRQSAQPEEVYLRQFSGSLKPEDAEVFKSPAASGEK
- METHOD: Antagonist activity at human TRPV1 expressed in tetracycline-stimulated HEK293 cells assessed as inhibition of capsaicin-induced intracellular calcium levels by fluorimetric assay relative to control
- Assay type: functional, cell-based
READOUT_NAME: Emax (%)
Express your answer in %, writing the number without its unit.

Param item = Oc1cc2c(cc1O)CN(C(=S)NCCc1ccc(Cl)cc1)CCC2 [CAPSAZEPINE] ; retrieve measured Emax.
92

Can you check CC(C)CNC(=O)/C=C/C=C/c1ccc2c(c1)OCO2 next?
94

Same question for COc1cc(/C=C/C(=O)N2CCOCC2)ccc1O please.
92

Another compound: COc1cc(/C=C/C(=O)N2CCCCC2)ccc1O
93

Can you handle O=C(/C=C/C=C/c1ccc2c(c1)OCO2)Nc1ccc(Cl)cc1 next?
94

Another: COc1cc(/C=C/C(=O)NCC(C)C)ccc1O
94

Try the compound COc1cc(/C=C/C(=O)N2CCSCC2)ccc1O
93

###

- TARGET_ENTITY: Transient receptor potential cation channel subfamily V member 1 (Homo sapiens, UniProt Q8NER1)
- METHOD: Agonist activity at human TRPV1 expressed in tetracycline-stimulated HEK293 cells assessed as increase in intracellular calcium levels by fluorimetric assay
- Type: functional, cell-based
Could you please report measured EC50 for the items listed next?
Field: numeric (µM). Do not append units.

Looking for the measured EC50 of O=C(/C=C/C=C/c1ccc2c(c1)OCO2)N1CCCCC1 [PIPERINE] , can you help?
3.16

Another compound to look at: O=C(/C=C/c1ccc2c(c1)OCO2)N1CCCCC1 [ILEPCIMIDE]
20

Same read-out for O=C(/C=C/C=C/c1ccc2c(c1)OCO2)N1CCOCC1 ?
2.51

Try this compound next: O=C(/C=C/CCc1ccc2c(c1)OCO2)N1CCCCC1 [PIPERANINE]
3.98

Now consider O=C(CCCCc1ccc2c(c1)OCO2)N1CCCCC1 [TETRAHYDROPIPERINE] .
6.31

###

What Emax was measured for each of the following?
- TARGET_ENTITY: UniProt:Q8NER1
- METHOD: Agonist activity at human TRPV1 expressed in tetracycline-stimulated HEK293 cells assessed as increase in intracellular calcium levels by fluorimetric assay relative to control
- Type: functional, cell-based
Expressed in %, but write only the number.

So what's the measured Emax for this one? O=C(/C=C/CCc1ccc2c(c1)OCO2)N1CCCCC1
88

// query: COc1cc(CNC(=O)CCCC/C=C/C(C)C)ccc1O
97

Same for O=C(/C=C/C=C/c1ccc2c(c1)OCO2)N1CCCCC1
91

Next compound: O=C(CCCCc1ccc2c(c1)OCO2)N1CCCCC1 [TETRAHYDROPIPERINE]
90

Record: O=C(/C=C/c1ccc2c(c1)OCO2)N1CCCCC1 [ILEPCIMIDE]
66

Try this compound next: O=C(/C=C/C=C/c1ccc2c(c1)OCO2)N1CCOCC1
93

###

- TARGET_ENTITY: Transient receptor potential cation channel subfamily V member 1 (Homo sapiens)
- METHOD: Antagonist activity at human TRPV1 expressed in tetracycline-stimulated HEK293 cells assessed as inhibition of capsaicin-induced intracellular calcium levels by fluorimetric assay
- Format: functional, cell-based
Provide the recorded EC50 for the entries that follow.
Dear colleague, please return just the value in nM, with no unit written.

Recorded EC50 for COc1cc(/C=C/C(=O)N2CCSCC2)ccc1O , please?
2.51

What do you get for Oc1cc2c(cc1O)CN(C(=S)NCCc1ccc(Cl)cc1)CCC2 [CAPSAZEPINE] ?
2510

Lookup COc1cc(/C=C/C(=O)NCC(C)C)ccc1O
6.31

Try the molecule COc1cc(/C=C/C(=O)N2CCCCC2)ccc1O
2

Another: CC(C)CNC(=O)/C=C/C=C/c1ccc2c(c1)OCO2 [PIPERLONGUMININE]
6.31

Can you check COc1cc(/C=C/C(=O)N2CCOCC2)ccc1O next?
2.51

And O=C(/C=C/C=C/c1ccc2c(c1)OCO2)Nc1ccc(Cl)cc1 ?
10
